Target: UniProt Q8WTS6
Sequence (Q8WTS6 whole entry): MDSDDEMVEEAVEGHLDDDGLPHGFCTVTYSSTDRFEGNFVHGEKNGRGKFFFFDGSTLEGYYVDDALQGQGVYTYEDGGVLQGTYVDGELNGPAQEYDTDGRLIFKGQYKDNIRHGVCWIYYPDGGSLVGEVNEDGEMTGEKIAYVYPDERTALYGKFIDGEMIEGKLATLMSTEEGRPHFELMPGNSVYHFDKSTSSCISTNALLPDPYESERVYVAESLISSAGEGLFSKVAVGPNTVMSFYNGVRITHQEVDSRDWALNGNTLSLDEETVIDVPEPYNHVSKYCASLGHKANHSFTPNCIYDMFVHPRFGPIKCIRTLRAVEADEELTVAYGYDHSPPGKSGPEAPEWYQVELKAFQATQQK
Endpoint Name: Kd (nM)
Entry rule: numbers only, all in nM.

Lab note: O=C([C@@H](Cc1cccc(C(F)(F)F)c1)NS(=O)(=O)c1cc(F)c2c(c1)CCNC2)N1CCCC1 gave Kd of 4.2

---

Molecular target: xanthine oxidase (Xanthine dehydrogenase/oxidase) (Homo sapiens, UniProt P47989)
Sequence (P47989 whole entry): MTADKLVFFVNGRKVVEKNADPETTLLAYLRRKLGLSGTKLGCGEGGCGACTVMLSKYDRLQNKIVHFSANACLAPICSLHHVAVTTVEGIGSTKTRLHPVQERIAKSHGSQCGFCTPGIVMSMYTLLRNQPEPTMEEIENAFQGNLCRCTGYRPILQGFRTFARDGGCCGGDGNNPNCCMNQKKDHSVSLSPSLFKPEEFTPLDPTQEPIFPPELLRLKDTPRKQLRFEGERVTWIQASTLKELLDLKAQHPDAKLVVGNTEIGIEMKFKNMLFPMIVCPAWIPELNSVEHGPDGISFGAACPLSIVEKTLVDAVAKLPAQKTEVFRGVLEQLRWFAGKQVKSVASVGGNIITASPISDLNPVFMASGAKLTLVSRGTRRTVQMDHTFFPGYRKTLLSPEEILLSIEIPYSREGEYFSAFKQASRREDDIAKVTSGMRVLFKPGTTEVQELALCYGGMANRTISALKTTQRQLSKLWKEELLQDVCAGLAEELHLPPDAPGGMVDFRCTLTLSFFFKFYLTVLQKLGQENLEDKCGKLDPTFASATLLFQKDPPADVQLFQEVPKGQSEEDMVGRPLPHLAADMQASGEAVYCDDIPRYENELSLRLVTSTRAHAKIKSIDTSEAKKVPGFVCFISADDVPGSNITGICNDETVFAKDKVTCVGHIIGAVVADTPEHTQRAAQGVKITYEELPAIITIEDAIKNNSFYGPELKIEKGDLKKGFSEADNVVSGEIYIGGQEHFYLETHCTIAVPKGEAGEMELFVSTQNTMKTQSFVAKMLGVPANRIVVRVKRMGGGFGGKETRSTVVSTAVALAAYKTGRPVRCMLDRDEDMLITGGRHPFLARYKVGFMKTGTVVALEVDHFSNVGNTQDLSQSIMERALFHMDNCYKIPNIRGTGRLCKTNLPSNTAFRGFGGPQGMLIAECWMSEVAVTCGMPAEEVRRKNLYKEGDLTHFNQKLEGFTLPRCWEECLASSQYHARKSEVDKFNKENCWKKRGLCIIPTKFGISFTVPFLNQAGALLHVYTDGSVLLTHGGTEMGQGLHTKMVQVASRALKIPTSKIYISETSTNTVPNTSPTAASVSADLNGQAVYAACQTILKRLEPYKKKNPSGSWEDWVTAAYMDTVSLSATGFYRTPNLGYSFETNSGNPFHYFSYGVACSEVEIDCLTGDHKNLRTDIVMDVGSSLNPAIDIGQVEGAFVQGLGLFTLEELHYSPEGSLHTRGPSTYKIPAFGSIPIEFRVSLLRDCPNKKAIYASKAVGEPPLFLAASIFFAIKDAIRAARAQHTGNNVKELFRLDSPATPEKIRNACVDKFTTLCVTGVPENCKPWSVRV
Experiment: Inhibition of xanthine oxidase (unknown origin) at 10 uM relative to control
Endpoint Name: inhibition at 10 µM (%)
State just the number; it will be interpreted in %.

// O=C([C@@H](Cc1cccc(C(F)(F)F)c1)NS(=O)(=O)c1cc(F)c2c(c1)CCNC2)N1CCCC1 : inhibition at 10 µM value = 4

---

Endpoint Name: IC50 (µM)
Field: numeric (µM). Do not append units.

Sample O=C([C@@H](Cc1cccc(C(F)(F)F)c1)NS(=O)(=O)c1cc(F)c2c(c1)CCNC2)N1CCCC1 , system: Kappa-type opioid receptor (Homo sapiens, UniProt P41145). Its IC50 is 3.8

---

Endpoint Name: IC50 (µM)
Numeric only. Scale: µM

O=C([C@@H](Cc1cccc(C(F)(F)F)c1)NS(=O)(=O)c1cc(F)c2c(c1)CCNC2)N1CCCC1 tested on Alpha-2B adrenergic receptor (Homo sapiens) gave IC50: 1.3

---

Assay: Aqueous solubility of compound
Assay type: physicochemical
Conditions: buffer
Endpoint Name: solubility (µM)
Hi! Could you send only the number? It should be in µM, unit omitted.

// recorded solubility for O=C([C@@H](Cc1cccc(C(F)(F)F)c1)NS(=O)(=O)c1cc(F)c2c(c1)CCNC2)N1CCCC1 : 285

---

Experiment: Inhibition of Ca2+ channel L, diltiazem site (unknown origin)
Parameters: species or system Homo sapiens
Endpoint Name: pIC50
Units for pIC50: none; it is -log10 of a concentration expressed in mol/L.

Entry O=C([C@@H](Cc1cccc(C(F)(F)F)c1)NS(=O)(=O)c1cc(F)c2c(c1)CCNC2)N1CCCC1 ; pIC50 = 4.85

---

Endpoint Name: IC50 (nM)
Give the number; nM is assumed, so skip it.

Known value: Histone-lysine N-methyltransferase SETD7 (Homo sapiens, UniProt Q8WTS6) IC50 of the molecule O=C([C@@H](Cc1cccc(C(F)(F)F)c1)NS(=O)(=O)c1cc(F)c2c(c1)CCNC2)N1CCCC1 equals 2

---

Target: Bombesin receptor subtype-3 (Homo sapiens, UniProt P32247)
Sequence (P32247 whole entry): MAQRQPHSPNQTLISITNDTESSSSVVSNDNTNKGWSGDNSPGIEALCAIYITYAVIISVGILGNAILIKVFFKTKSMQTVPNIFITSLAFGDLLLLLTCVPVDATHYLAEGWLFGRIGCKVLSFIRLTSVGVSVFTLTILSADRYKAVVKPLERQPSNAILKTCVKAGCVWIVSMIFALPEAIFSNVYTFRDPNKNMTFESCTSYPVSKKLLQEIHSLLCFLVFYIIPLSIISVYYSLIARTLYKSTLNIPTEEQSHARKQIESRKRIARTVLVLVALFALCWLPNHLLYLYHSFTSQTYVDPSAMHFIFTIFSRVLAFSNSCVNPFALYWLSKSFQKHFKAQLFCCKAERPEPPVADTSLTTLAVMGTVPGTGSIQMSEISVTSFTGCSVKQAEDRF
Assay: Inhibition of human BB3 receptor
Endpoint Name: pIC50
Reminder that pIC50 means the negative base-10 logarithm of the concentration expressed in mol/L.

Form: compound = O=C([C@@H](Cc1cccc(C(F)(F)F)c1)NS(=O)(=O)c1cc(F)c2c(c1)CCNC2)N1CCCC1 ; pIC50 = 5.09
